# EC50 annotations
target: TSH receptor (TSHR) (Homo sapiens, UniProt P16473); assay: cAMP production in HEK293 cells stably expressing TSHR (agonist dose-response); inactive in HEK-LHR and HEK-FSHR cells; assay type: cell-based
Sequence (P16473 21-764): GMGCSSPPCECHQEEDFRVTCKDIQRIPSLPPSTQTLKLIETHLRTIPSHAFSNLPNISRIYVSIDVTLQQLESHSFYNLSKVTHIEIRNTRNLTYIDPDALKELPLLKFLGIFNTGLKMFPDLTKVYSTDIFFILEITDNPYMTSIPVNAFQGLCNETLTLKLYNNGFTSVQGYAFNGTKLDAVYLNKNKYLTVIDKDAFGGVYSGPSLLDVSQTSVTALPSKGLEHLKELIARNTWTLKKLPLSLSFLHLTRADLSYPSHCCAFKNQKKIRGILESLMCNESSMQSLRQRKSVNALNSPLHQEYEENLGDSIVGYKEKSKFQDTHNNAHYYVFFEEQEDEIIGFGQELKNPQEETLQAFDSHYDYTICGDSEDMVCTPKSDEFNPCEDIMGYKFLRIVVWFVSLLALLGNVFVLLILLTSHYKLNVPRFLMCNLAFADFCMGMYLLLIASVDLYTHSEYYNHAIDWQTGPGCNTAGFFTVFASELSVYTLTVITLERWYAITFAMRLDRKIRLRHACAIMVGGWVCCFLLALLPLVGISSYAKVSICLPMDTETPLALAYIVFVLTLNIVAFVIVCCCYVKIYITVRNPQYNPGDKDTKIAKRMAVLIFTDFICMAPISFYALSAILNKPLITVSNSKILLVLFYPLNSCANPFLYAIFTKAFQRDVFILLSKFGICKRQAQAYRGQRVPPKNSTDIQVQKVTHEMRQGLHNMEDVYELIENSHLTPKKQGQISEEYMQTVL
QUANTITY MEASURED: EC50 (nM)

# COMPOUND, NUMERIC VALUE
records = [
    ("COc1ccc([C@@H]2Nc3cccc(O)c3C(=O)N2Cc2ccccc2)cc1COc1ccc(NC(C)=O)cc1 [E1]", 217),
    ("COc1ccc([C@H]2Nc3cccc(O)c3C(=O)N2Cc2ccccc2)cc1COc1ccc(NC(C)=O)cc1 [E2]", 18),
]

====

target: TSH receptor (TSHR) (Homo sapiens, UniProt P16473); assay: cAMP production in HEK293 cells stably expressing TSHR (agonist dose-response); assay type: cell-based
pEC50: −log10 of the molar value.

# MOLECULE, TARGET UNDER TEST, pEC50
measured = [
    ("COc1ccc(C2Nc3cccc(O)c3C(=O)N2Cc2ccccc2)cc1COc1ccc(NC(C)=O)cc1 (racemic)", "TSH receptor (TSHR) (Homo sapiens, UniProt P16473)", 7.34),
]

These entries and their values trace back to paper PMC4961696.
